For each entry below, report its Fluorescence λmax ex value.
assay-notes: Fluorescence excitation/emission spectroscopy and relative quantum yield
Assay type: physicochemical
experimental-conditions: DMF, 0.1 mM, emission at 420 nm; 7-MC in presence of 10 mM DTT
Answers are plain numbers, in nm.

Examples with their reported Fluorescence λmax ex follow.
compound: Cc1cc(=O)oc2cc(O)ccc12 [Compound 4-MUB, 4-methylumbelliferone, reference compound]
Fluorescence λmax ex / nm: 320

compound: Cc1cc(=O)oc2cc(S)ccc12 [Compound 7-MC, 7-mercapto-4-methylcoumarin, reference compound]
Fluorescence λmax ex / nm: 334

compound: Cc1cc(=O)oc2cc(S[C@@H]3O[C@H](C(=O)O)[C@@H](O)[C@H](O)[C@H]3O)ccc12
Fluorescence λmax ex / nm: 332

Hey, quick one: what's Fluorescence λmax ex for each of these?
1. Cc1cc(=O)oc2cc(S[C@@H]3O[C@H](CO)[C@@H](O)[C@H](O)[C@H]3O)ccc12
2. Cc1cc(=O)oc2cc(S[C@H]3O[C@H](CO)[C@H](O)[C@H](O)[C@H]3O)ccc12
3. Cc1cc(=O)oc2cc(S[C@@H]3O[C@H](CO)[C@H](O)[C@H](O)[C@H]3O)ccc12
4. Cc1cc(=O)oc2cc(S[C@@H]3O[C@H](C)[C@H](O)[C@H](O)[C@H]3O)ccc12
5. Cc1cc(=O)oc2cc(S[C@@H]3OC[C@@H](O)[C@H](O)[C@H]3O)ccc12

Response:
1: 332; 2: 334; 3: 334; 4: 334; 5: 332

###

For each entry below, report its Fluorescence λmax em value.
assay-notes: Fluorescence excitation/emission spectroscopy and relative quantum yield
Format: physicochemical
experimental-conditions: PBS pH 7.4, 0.1 mM, excitation at 280 nm; 7-MC in presence of 10 mM DTT
Numbers only, in nm.

Examples with their reported Fluorescence λmax em follow.
molecule: Cc1cc(=O)oc2cc(S[C@@H]3O[C@H](CO)[C@@H](O)[C@H](O)[C@H]3O)ccc12
measured-number: 402
//
molecule: Cc1cc(=O)oc2cc(S[C@@H]3O[C@H](CO)[C@H](O)[C@H](O)[C@H]3O)ccc12
measured-number: 402
//
molecule: Cc1cc(=O)oc2cc(S[C@@H]3OC[C@@H](O)[C@H](O)[C@H]3O)ccc12
measured-number: 402
//
molecule: Cc1cc(=O)oc2cc(S[C@@H]3O[C@H](C)[C@H](O)[C@H](O)[C@H]3O)ccc12
measured-number: 402
//
molecule: Cc1cc(=O)oc2cc(S)ccc12 [Compound 7-MC, 7-mercapto-4-methylcoumarin, reference compound]
measured-number: 448

Hey, quick one: what's Fluorescence λmax em for each of these?
1. Cc1cc(=O)oc2cc(O)ccc12 [Compound 4-MUB, 4-methylumbelliferone, reference compound]
2. Cc1cc(=O)oc2cc(S[C@@H]3O[C@H](C(=O)O)[C@@H](O)[C@H](O)[C@H]3O)ccc12
3. Cc1cc(=O)oc2cc(S[C@H]3O[C@H](CO)[C@H](O)[C@H](O)[C@H]3O)ccc12

Response:
448
402
416

###

assay-notes: Fluorescence excitation/emission spectroscopy and relative quantum yield
Type: physicochemical
experimental-conditions: PBS; relative to 4-MUB in DMF; 7-MC in presence of 10 mM DTT
For each entry below, report its Relative quantum yield Φ value.

Examples with their reported Relative quantum yield Φ follow.
compound: Cc1cc(=O)oc2cc(S[C@@H]3OC[C@@H](O)[C@H](O)[C@H]3O)ccc12
reported-property: Relative quantum yield Φ
result: 0.181
--
compound: Cc1cc(=O)oc2cc(S[C@@H]3O[C@H](C(=O)O)[C@@H](O)[C@H](O)[C@H]3O)ccc12
reported-property: Relative quantum yield Φ
result: 0.235
--
compound: Cc1cc(=O)oc2cc(S[C@H]3O[C@H](CO)[C@H](O)[C@H](O)[C@H]3O)ccc12
reported-property: Relative quantum yield Φ
result: 0.185
--
compound: Cc1cc(=O)oc2cc(S[C@@H]3O[C@H](CO)[C@@H](O)[C@H](O)[C@H]3O)ccc12
reported-property: Relative quantum yield Φ
result: 0.242
--
compound: Cc1cc(=O)oc2cc(S)ccc12 [Compound 7-MC, 7-mercapto-4-methylcoumarin, reference compound]
reported-property: Relative quantum yield Φ
result: 0.020
--
compound: Cc1cc(=O)oc2cc(S[C@@H]3O[C@H](C)[C@H](O)[C@H](O)[C@H]3O)ccc12
reported-property: Relative quantum yield Φ
result: 0.228

Hey, quick one: what's Relative quantum yield Φ for each of these?
1. Cc1cc(=O)oc2cc(S[C@@H]3O[C@H](CO)[C@H](O)[C@H](O)[C@H]3O)ccc12
2. Cc1cc(=O)oc2cc(O)ccc12 [Compound 4-MUB, 4-methylumbelliferone, reference compound]

Response:
0.271
0.293
